Assay: Drug uptake in Sprague-Dawley rat stomach at 0.2 mg/kg, iv administered as cassette dose after 24 hrs by LC-MS/MS analysis
Format: ADME, organism-based
Conditions: read-out: Drug uptake
quantity.measured: concentration at 24 h (ng/g)

P. CNCc1cn(S(=O)(=O)c2cccc(C)n2)c(-c2cccnc2F)c1F
Q. CNCc1cn(S(=O)(=O)c2ccccn2)c(-c2cccnc2F)c1F
R. CNCc1cn(S(=O)(=O)c2cc(OC)ccn2)c(-c2cccnc2F)c1F
S. CNCc1cn(S(=O)(=O)c2cc(C)ccn2)c(-c2cccnc2F)c1F
T. CNCc1cc(-c2cccnc2F)n(S(=O)(=O)c2ccsc2)c1
Qu. Rank the molecules listed above in increasing order of concentration at 24 h. The response must list the labels following the requested ordering.
Ans. Q, P, R, S, T
(Q: 2.1 ng/g, P: 3.3 ng/g, R: 8.8 ng/g, S: 28.9 ng/g, T: 41.7 ng/g)

====

Assay: Drug uptake in Sprague-Dawley rat stomach at 0.2 mg/kg, iv administered as cassette dose after 1 hr by LC-MS/MS analysis
Assay type: ADME, organism-based
Conditions: read-out: Drug uptake
quantity.measured: concentration at 1 h (ng/g)

[[record]]
smiles_entry = "CNCc1cn(S(=O)(=O)c2cccc(C)n2)c(-c2cccnc2F)c1F"
result_value = 999

[[record]]
smiles_entry = "CNCc1cn(S(=O)(=O)c2ccc(OC)cn2)c(-c2cccnc2F)c1F"
result_value = 806

[[record]]
smiles_entry = "CNCc1cn(S(=O)(=O)c2ccco2)c(-c2cccnc2F)c1F"
result_value = 706

[[record]]
smiles_entry = "CNCc1cc(-c2cccnc2F)n(S(=O)(=O)c2ccsc2)c1"
result_value = 614


1. CNCc1cn(S(=O)(=O)c2cc(OC)ccn2)c(-c2cccnc2F)c1F
2. CNCc1cc(-c2cccnc2F)n(S(=O)(=O)c2cccnc2)c1
3. CNCc1cn(S(=O)(=O)c2ccc(C)nc2)c(-c2cccnc2F)c1F
Qu. Please put the entries in order of rising concentration at 1 h. The response must list the labels following the requested ordering.
Ans. 2, 1, 3

====

Assay: AUC in Sprague-Dawley rat plasma at 0.2 mg/kg, iv administered as cassette dose by LC-MS/MS analysis
Format: ADME, organism-based
quantity.measured: AUC (ng·h/mL)

[[record]]
smiles_entry = "CNCc1cn(S(=O)(=O)c2ccccn2)c(-c2cccnc2F)c1F"
quantity_measured = "AUC"
result_value = 33

[[record]]
smiles_entry = "CNCc1cn(S(=O)(=O)c2ccc(OC)cn2)c(-c2cccnc2F)c1F"
quantity_measured = "AUC"
result_value = 52

[[record]]
smiles_entry = "CNCc1cn(S(=O)(=O)c2cccnc2)c(-c2cccnc2F)c1F"
quantity_measured = "AUC"
result_value = 54

[[record]]
smiles_entry = "CNCc1cn(S(=O)(=O)c2cccc(C)n2)c(-c2cccnc2F)c1F"
quantity_measured = "AUC"
result_value = 41


1. CNCc1cn(S(=O)(=O)c2cnccc2C)c(-c2cccnc2F)c1F
2. CNCc1cn(S(=O)(=O)c2ccc(F)cn2)c(-c2cccnc2F)c1F
Qu. Which shows the larger AUC value: 1 or 2 ? Your answer should be the label of the entry you select.
Ans. 1

====

Experiment: Drug uptake in Sprague-Dawley rat stomach at 0.2 mg/kg, iv administered as cassette dose after 10 mins by LC-MS/MS analysis
Format: ADME, organism-based
Conditions: read-out: Drug uptake
quantity.measured: concentration at 10 min (ng/g)

[[record]]
smiles_entry = "CNCc1cn(S(=O)(=O)c2cnccc2C)c(-c2cccnc2F)c1F"
result_value = 360

[[record]]
smiles_entry = "CNCc1cn(S(=O)(=O)c2ccccn2)c(-c2cccnc2F)c1F"
result_value = 617

[[record]]
smiles_entry = "CNCc1cn(S(=O)(=O)c2cccc(OC)n2)c(-c2cccnc2F)c1F"
result_value = 773

[[record]]
smiles_entry = "CNCc1cn(S(=O)(=O)c2cccnc2)c(-c2cccnc2F)c1F"
result_value = 602

[[record]]
smiles_entry = "CNCc1cc(-c2cccnc2F)n(S(=O)(=O)c2ccsc2)c1"
result_value = 407


A. CNCc1cn(S(=O)(=O)c2ccc(F)cn2)c(-c2cccnc2F)c1F
B. CNCc1cn(S(=O)(=O)c2ccc(C)nc2)c(-c2cccnc2F)c1F
Qu. Which shows the larger concentration at 10 min value: A or B ? Your answer should be the label of the entry you select.
Ans. B

====

Assay: Plasma concentration in Sprague-Dawley rat at 0.2 mg/kg, iv administered as cassette dose after 1 hr by LC-MS/MS analysis
Assay type: ADME, organism-based
quantity.measured: concentration at 1 h (ng/mL)

As a guide, the following entries are already answered.
[[record]]
smiles_entry = "CNCc1cn(S(=O)(=O)c2ccccn2)c(-c2cccnc2F)c1F"
quantity_measured = "concentration at 1 h"
units_label = "ng/mL"
result_value = 7.9

[[record]]
smiles_entry = "CNCc1cn(S(=O)(=O)c2cncc(F)c2)c(-c2cccnc2F)c1F"
quantity_measured = "concentration at 1 h"
units_label = "ng/mL"
result_value = 8.3

[[record]]
smiles_entry = "CNCc1cn(S(=O)(=O)c2ccc(OC)cn2)c(-c2cccnc2F)c1F"
quantity_measured = "concentration at 1 h"
units_label = "ng/mL"
result_value = 13.1

[[record]]
smiles_entry = "CNCc1cn(S(=O)(=O)c2cc(C)ccn2)c(-c2cccnc2F)c1F"
quantity_measured = "concentration at 1 h"
units_label = "ng/mL"
result_value = 8.1

[[record]]
smiles_entry = "CNCc1cn(S(=O)(=O)c2cccnc2)c(-c2cccnc2F)c1F"
quantity_measured = "concentration at 1 h"
units_label = "ng/mL"
result_value = 15


P. CNCc1cn(S(=O)(=O)c2ccoc2)c(-c2cccnc2F)c1F
Q. CNCc1cn(S(=O)(=O)c2ccc(F)cn2)c(-c2cccnc2F)c1F
Qu. Lab note: check whether P or Q has the lower measured concentration at 1 h. Your answer should be the label of the entry you select.
Ans. Q

====

Assay: Drug uptake in Sprague-Dawley rat stomach at 0.2 mg/kg, iv administered as cassette dose after 1 hr by LC-MS/MS analysis
Assay type: ADME, organism-based
Conditions: read-out: Drug uptake
quantity.measured: concentration at 1 h (ng/g)

As a guide, the following entries are already answered.
[[record]]
smiles_entry = "CNCc1cn(S(=O)(=O)c2cc(C)ccn2)c(-c2cccnc2F)c1F"
units_label = "ng/g"
result_value = 927

[[record]]
smiles_entry = "CNCc1cn(S(=O)(=O)c2cccnc2Cl)c(-c2cccnc2F)c1F"
units_label = "ng/g"
result_value = 722

[[record]]
smiles_entry = "CNCc1cn(S(=O)(=O)c2cccnc2C)c(-c2cccnc2F)c1F"
units_label = "ng/g"
result_value = 577


P. CNCc1cn(S(=O)(=O)c2cccnc2)c(-c2cccnc2F)c1F
Q. CNCc1cn(S(=O)(=O)c2cccc(OC)n2)c(-c2cccnc2F)c1F
R. CNCc1cn(S(=O)(=O)c2ccc(F)cn2)c(-c2cccnc2F)c1F
Qu. # desc sort on concentration at 1 h across 3 compounds The response must list the labels following the requested ordering.
Ans. Q, P, R

====

Test: Drug uptake in Sprague-Dawley rat stomach at 0.2 mg/kg, iv administered as cassette dose after 1 hr by LC-MS/MS analysis
Type: ADME, organism-based
Details: read-out: Drug uptake
quantity.measured: concentration at 1 h (ng/g)

[[record]]
smiles_entry = "CNCc1cn(S(=O)(=O)c2ccccn2)c(-c2cccnc2F)c1F"
result_value = 809

[[record]]
smiles_entry = "CNCc1cn(S(=O)(=O)c2cncc(F)c2)c(-c2cccnc2F)c1F"
result_value = 606

[[record]]
smiles_entry = "CNCc1cc(-c2cccnc2F)n(S(=O)(=O)c2cccs2)c1"
result_value = 592

[[record]]
smiles_entry = "CNCc1cn(S(=O)(=O)c2cnccc2C)c(-c2cccnc2F)c1F"
result_value = 618

[[record]]
smiles_entry = "CNCc1cn(S(=O)(=O)c2cccs2)c(-c2cccnc2F)c1F"
result_value = 955

[[record]]
smiles_entry = "CNCc1cn(S(=O)(=O)c2ccoc2)c(-c2cccnc2F)c1F"
result_value = 688


====

Assay: Plasma concentration in Sprague-Dawley rat at 0.2 mg/kg, iv administered as cassette dose after 1 hr by LC-MS/MS analysis
Type: ADME, organism-based
quantity.measured: concentration at 1 h (ng/mL)

[[record]]
smiles_entry = "CNCc1cn(S(=O)(=O)c2cc(OC)ccn2)c(-c2cccnc2F)c1F"
units_label = "ng/mL"
result_value = 10.1

[[record]]
smiles_entry = "CNCc1cn(S(=O)(=O)c2cccs2)c(-c2cccnc2F)c1F"
units_label = "ng/mL"
result_value = 12.2

[[record]]
smiles_entry = "CNCc1cn(S(=O)(=O)c2ccco2)c(-c2cccnc2F)c1F"
units_label = "ng/mL"
result_value = 6.5

[[record]]
smiles_entry = "CNCc1cc(-c2cccnc2F)n(S(=O)(=O)c2ccsc2)c1"
units_label = "ng/mL"
result_value = 8.9

[[record]]
smiles_entry = "CNCc1cn(S(=O)(=O)c2cnccc2C)c(-c2cccnc2F)c1F"
units_label = "ng/mL"
result_value = 8.4

[[record]]
smiles_entry = "CNCc1cc(-c2cccnc2F)n(S(=O)(=O)c2cccs2)c1"
units_label = "ng/mL"
result_value = 8.8


Measured values drawn from ChEMBL document CHEMBL4020761 for this set.
